This collection of values is drawn from patent US12421217B2.

- test_system: recombinant human DHODH (Homo sapiens, UniProt Q02127)
- Construct: DHODH, 31-395 aa, Human, His tag, E. coli, ATGP1615; His tag
- Sequence (Q02127 31-395): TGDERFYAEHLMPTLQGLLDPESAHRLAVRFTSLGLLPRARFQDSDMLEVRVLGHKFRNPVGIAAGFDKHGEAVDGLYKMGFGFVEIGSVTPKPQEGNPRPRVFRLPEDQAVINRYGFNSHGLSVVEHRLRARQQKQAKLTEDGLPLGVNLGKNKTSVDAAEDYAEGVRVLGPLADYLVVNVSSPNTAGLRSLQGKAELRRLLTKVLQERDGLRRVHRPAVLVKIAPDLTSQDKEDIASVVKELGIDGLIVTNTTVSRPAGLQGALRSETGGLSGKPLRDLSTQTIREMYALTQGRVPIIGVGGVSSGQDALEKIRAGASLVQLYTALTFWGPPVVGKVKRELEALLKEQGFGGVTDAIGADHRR
- test: Enzyme reaction inhibition test (DHODH enzyme assay, DCIP quenching)
- particulars: DCIP absorbance 600 nm, 50 minutes, read-out: Enzyme reaction inhibitory effect (IC50)
- Procedure: The DHODH enzyme assay was carried out with reference to “Benjamin Bader, Wolfgang Knecht, Markus Fries, and Monika Loffler. Expression, Purification, and Characterization of Histidine-Tagged Rat and Human Flavoenzyme Dihydroorotate Dehydrogenase. […] The DHODH activity was evaluated using an enzyme assay system that is coupled with an assay in which a blue coloring agent 2,6-dichlorophenol indophenol (DCIP, available from MP Biomedicals, LLC, MP150118) is quenched. […]
pIC50: −log10 of the molar value.
Would you mind telling me the reported pIC50 of each entry?

Can you look up the measured pIC50 of O=C(O)c1nc(C2CC2)cnc1Nc1cccc(C2=CCOCC2)c1COCC(F)(F)F for me?
7.00 to 8.00

Can you look up the measured pIC50 of O=C(O)c1nc(C2CC2)cnc1Nc1cccc(C2=CCOCC2)c1OCC(F)(F)C(F)(F)F for me?
> 8.00

Can you look up the measured pIC50 of CCOc1c(Nc2ncc(C3CC3)nc2C(=O)O)cc(F)cc1C1=CCOCC1 for me?
7.00 to 8.00

Can you look up the measured pIC50 of O=C(O)c1nc(C2CC2)cnc1Nc1cccc(C2=CCOCC2)c1F for me?
7.00 to 8.00

Can you look up the measured pIC50 of O=C(O)c1nc(C2CC2)cnc1Nc1cccc(C2=CCOCC2)c1OC(F)F for me?
> 8.00

Can you look up the measured pIC50 of CCOC(=O)c1nc(C2CC2)cnc1Nc1cccc(C2=CCOCC2)c1OCC(F)(F)F for me?
≤ 7.00

Can you look up the measured pIC50 of C[C@H](Oc1c(Nc2ncc(C3CC3)nc2C(=O)O)cccc1C1CCOCC1)C(F)(F)F for me?
> 8.00

Can you look up the measured pIC50 of CCOc1c(Nc2ncc(C3CC3)nc2C(=O)O)ccc(F)c1C1=CCOCC1 for me?
> 8.00

Can you look up the measured pIC50 of Cc1cnc(Nc2cccc(C3=CCOCC3)c2OCC(F)(F)F)c(C(=O)O)n1 for me?
7.00 to 8.00

Can you look up the measured pIC50 of O=C(O)c1nc(C2CC2)cnc1Nc1cc(F)cc(C2=CCOCC2)c1OCC(F)(F)F for me?
> 8.00

Can you look up the measured pIC50 of O=C(O)c1nc(C2CC2)cnc1Nc1cccc(C2=CCOCC2)c1CCCF for me?
7.00 to 8.00

Can you look up the measured pIC50 of O=C(O)c1nc(C2CC2)cnc1Nc1cc(F)cc(C2=CCOCC2)c1OC(F)F for me?
> 8.00

Can you look up the measured pIC50 of COC(=O)c1nc(C2CC2)cnc1Nc1cccc(C2=CCOCC2)c1OCC(F)(F)F for me?
≤ 7.00

Can you look up the measured pIC50 of C[C@H](Oc1c(Nc2ncc(C3CC3)nc2C(=O)O)cccc1C1=CCOCC1)C(F)(F)F for me?
> 8.00

Can you look up the measured pIC50 of O=C(O)c1nc(C2CC2)cnc1Nc1cccc(C2=CCOCC2)c1OCCC(F)(F)F for me?
> 8.00

Can you look up the measured pIC50 of O=C(O)c1nc(C2CC2)cnc1Nc1cccc(C2CCOCC2)c1CCF for me?
7.00 to 8.00

Can you look up the measured pIC50 of CCOc1ccc(Nc2ncc(C3CC3)nc2C(=O)O)c(OCC)c1C1=CCOCC1 for me?
7.00 to 8.00
